- Test Target: human TLR9 (Homo sapiens, UniProt Q9NR96)
- Sequence (Q9NR96 26-1032): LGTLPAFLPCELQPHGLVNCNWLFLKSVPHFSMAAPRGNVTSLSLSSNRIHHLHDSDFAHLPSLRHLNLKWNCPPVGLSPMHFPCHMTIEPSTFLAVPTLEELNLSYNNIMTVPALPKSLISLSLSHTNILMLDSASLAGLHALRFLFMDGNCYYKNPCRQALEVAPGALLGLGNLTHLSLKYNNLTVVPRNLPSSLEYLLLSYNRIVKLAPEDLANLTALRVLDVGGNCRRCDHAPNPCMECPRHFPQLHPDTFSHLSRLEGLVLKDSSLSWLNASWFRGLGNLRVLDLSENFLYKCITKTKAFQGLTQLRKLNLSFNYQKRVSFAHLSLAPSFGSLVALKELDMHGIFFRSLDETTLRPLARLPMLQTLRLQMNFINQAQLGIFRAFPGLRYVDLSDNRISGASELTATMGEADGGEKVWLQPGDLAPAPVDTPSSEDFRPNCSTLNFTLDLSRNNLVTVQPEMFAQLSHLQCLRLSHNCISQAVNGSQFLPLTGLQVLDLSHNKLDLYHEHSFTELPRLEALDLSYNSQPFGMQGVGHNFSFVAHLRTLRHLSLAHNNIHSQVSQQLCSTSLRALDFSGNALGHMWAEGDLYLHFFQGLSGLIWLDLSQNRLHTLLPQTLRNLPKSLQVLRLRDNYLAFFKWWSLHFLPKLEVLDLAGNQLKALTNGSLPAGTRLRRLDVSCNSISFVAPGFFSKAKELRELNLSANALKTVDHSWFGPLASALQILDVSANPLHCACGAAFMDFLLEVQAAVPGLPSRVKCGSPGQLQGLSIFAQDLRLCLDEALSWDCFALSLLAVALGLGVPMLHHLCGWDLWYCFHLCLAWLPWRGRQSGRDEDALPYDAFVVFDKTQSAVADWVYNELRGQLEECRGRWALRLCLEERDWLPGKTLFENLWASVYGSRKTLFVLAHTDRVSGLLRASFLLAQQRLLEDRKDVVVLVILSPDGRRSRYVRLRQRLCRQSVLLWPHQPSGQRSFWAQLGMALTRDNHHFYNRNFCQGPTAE
- Assay Info: TLR9 inhibition reporter assay (HEK-Blue cells, SEAP reporter, ODN2006 stimulation)
- Experimental Parameters: HEK-Blue cells overexpressing human TLR9, SEAP reporter, ODN2006 5 nM
Property Label: log10 IC50 (log10 of the value in nM)
The common logarithm of IC50 in nM is what is listed.

Take a look at these entries with their results.
Cc1cc(-c2[nH]c3ccc(C4CCC(NC5(C)COC5)CC4)cc3c2C(C)C)cn2ncnc12 (single isomer, unassigned) [Example 47] = 3.67
Cc1cc(-c2[nH]c3ccc(CC4CCCN4C4CCOCC4)cc3c2C(C)C)cn2ncnc12 (stereo not shown) [Example 425] = 3.40
Cc1cc(-c2[nH]c3ccc(C4CN(C(=O)CN(C)C)C4)cc3c2C(C)C)cn2ncnc12 [Example 266] = 3.16

In: Consider the molecule Cc1c(-c2[nH]c3ccc(C4CC5CN(CC(=O)N(C)C)CC5C4)cc3c2C(C)C)cn2cnnc2c1C (stereo not shown) [Example 520] and give its measured log10 IC50.
Out: 4.25

In: # iterate: Cc1c(-c2[nH]c3ccc(C4CCC(N5CCOCC5)CC4)cc3c2C(C)C)cn2ncnc2c1C (single isomer, unassigned) [Example 92]
Out: 3.43

In: # iterate: COc1cc(-c2[nH]c3ccc(C4CCC(NC5CC5)CC4)cc3c2C(C)C)cn2ncnc12 (stereo not shown) [Example 10]
Out: 3.10

---

As shown below, each of these molecules has a reported pIC50 value.
- Test Target: human TLR7 (Homo sapiens)
- Assay Info: TLR7 inhibition reporter assay (HEK-Blue cells, SEAP reporter, gardiquimod stimulation)
- Experimental Parameters: HEK-Blue cells overexpressing human TLR7, SEAP reporter, gardiquimod 7.5 μM
Remember, pIC50 is on a log scale: it is -log10 of the molar concentration.

Cc1c(-c2[nH]c3ccc(C4CC5CN(CC(=O)N(C)C)CC5C4)cc3c2C(C)C)cn2cnnc2c1C (stereo not shown) = 7.54

Let us examine a further case.
In: Consider the molecule COc1cc(-c2[nH]c3ccc(C4CCC(N5CC6(COC6)C5)CC4)cc3c2C(C)C)cn2ncnc12 (stereo not shown) [Example 73] and give its measured pIC50.
Out: 9.49

---

As shown below, each of these molecules has a reported pIC50 value.
- Test Target: human TLR9 (Homo sapiens, UniProt Q9NR96)
- Assay Info: TLR9 inhibition reporter assay (HEK-Blue cells, SEAP reporter, ODN2006 stimulation)
- Experimental Parameters: HEK-Blue cells overexpressing human TLR9, SEAP reporter, ODN2006 5 nM
- Source text: TLR7/8/9 Inhibition Reporter Assays HEK-Blue™-cells (Invivogen) overexpressing human TLR7, TLR8 or TLR9 receptors were used for screening inhibitors of these receptors using an inducible SEAP (secreted embryonic alkaline phosphatase) reporter gene under the control of the IFN-β minimal promoter fused to five NF-κB and AP-1-binding sites. […]
Remember, pIC50 is on a log scale: it is -log10 of the molar concentration.

Cc1cc(-c2[nH]c3ccc(C4CCC(N(C)C5CC5)CC4)cc3c2C(C)C)cn2ncnc12 (single isomer, unassigned) [Example 9] = 5.73

In: Consider the molecule Cc1c(-c2[nH]c3ccc(C4CCC(NCC(=O)N(C)C)CC4)cc3c2C(C)C)cn(C)c(=O)c1C (stereo not shown) [Example 473] and give its measured pIC50.
Out: 5.05

In: # iterate: Cc1c(-c2[nH]c3ccc(C4CCC(N(C)CCS(C)(=O)=O)CC4)cc3c2C(C)C)cn2ncnc2c1C (stereo not shown)
Out: 5.48

In: # iterate: Cc1cc(-c2[nH]c3ccc(C4CCC(OC5CCNCC5)CC4)cc3c2C(C)C)ccn1 (stereo not shown)
Out: 5.54

In: # iterate: Cc1c(-c2[nH]c3ccc(CC4CN(C(=O)CN(C)C)C4)cc3c2C(C)C)cn2ncnc2c1C
Out: 4.97

---

As shown below, each of these compounds has a reported log10 IC50 value.
- Test Target: human TLR7 (Homo sapiens, UniProt Q9NYK1)
- Construct: host or cells: HEK-Blue cells
- Sequence (Q9NYK1 27-1049): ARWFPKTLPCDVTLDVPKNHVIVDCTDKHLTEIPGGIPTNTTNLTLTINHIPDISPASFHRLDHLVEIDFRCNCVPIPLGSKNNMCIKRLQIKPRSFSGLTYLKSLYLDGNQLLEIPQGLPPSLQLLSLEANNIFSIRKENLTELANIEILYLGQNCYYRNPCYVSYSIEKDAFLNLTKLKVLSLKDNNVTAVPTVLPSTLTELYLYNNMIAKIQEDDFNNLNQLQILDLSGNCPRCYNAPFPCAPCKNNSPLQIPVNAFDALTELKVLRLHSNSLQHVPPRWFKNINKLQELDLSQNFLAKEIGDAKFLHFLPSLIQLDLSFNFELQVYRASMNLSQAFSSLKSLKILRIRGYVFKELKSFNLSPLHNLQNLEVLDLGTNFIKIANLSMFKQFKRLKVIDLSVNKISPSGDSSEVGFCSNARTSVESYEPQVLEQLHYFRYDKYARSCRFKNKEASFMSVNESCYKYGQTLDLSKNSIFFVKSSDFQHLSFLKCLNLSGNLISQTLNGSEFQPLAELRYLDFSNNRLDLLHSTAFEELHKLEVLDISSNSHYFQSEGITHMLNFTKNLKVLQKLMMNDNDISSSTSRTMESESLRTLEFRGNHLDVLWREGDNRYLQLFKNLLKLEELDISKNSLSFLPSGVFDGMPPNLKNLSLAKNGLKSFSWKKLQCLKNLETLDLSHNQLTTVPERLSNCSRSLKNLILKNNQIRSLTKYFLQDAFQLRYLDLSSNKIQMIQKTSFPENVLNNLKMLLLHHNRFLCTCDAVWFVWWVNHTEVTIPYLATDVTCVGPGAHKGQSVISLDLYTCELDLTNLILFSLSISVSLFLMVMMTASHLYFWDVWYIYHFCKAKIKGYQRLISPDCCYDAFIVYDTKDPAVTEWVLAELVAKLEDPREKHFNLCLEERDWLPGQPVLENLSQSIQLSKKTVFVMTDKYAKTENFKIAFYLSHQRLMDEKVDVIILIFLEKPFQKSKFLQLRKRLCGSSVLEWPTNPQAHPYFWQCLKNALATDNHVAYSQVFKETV
- Assay Info: TLR7 inhibition reporter assay (HEK-Blue cells, SEAP reporter, gardiquimod stimulation)
- Assay type: cell-based
- Experimental Parameters: HEK-Blue cells overexpressing human TLR7, SEAP reporter, gardiquimod 7.5 μM
The common logarithm of IC50 in nM is what is listed.

In: Form field - read-out: log10 IC50; system: human TLR7 (Homo sapiens, UniProt Q9NYK1); submitted item: CNC1CCC(c2ccc3[nH]c(-c4cc(OC)c5ncnn5c4)c(C(C)C)c3c2)CC1 (single isomer, unassigned) [Example 146]
Out: -0.10

In: # iterate: CNCC(=O)N1CCOC(c2ccc3[nH]c(-c4cn5ncnc5c(C)c4C)c(C(C)C)c3c2)C1 (centres unmarked) [Example 341]
Out: 0.30

In: # iterate: CC(C)c1c(-c2ccnc3[nH]ncc23)[nH]c2ccc(CN3CCCCC3)cc12
Out: 2.45

In: # iterate: CCc1c(-c2ccnc(C)c2)[nH]c2ccc(CNC(=O)N3CCN(C)CC3)cc12
Out: 3.18

---

- Test Target: human TLR7 (Homo sapiens, UniProt Q9NYK1)
- Construct: host or cells: HEK-Blue cells
- Sequence (Q9NYK1 27-1049): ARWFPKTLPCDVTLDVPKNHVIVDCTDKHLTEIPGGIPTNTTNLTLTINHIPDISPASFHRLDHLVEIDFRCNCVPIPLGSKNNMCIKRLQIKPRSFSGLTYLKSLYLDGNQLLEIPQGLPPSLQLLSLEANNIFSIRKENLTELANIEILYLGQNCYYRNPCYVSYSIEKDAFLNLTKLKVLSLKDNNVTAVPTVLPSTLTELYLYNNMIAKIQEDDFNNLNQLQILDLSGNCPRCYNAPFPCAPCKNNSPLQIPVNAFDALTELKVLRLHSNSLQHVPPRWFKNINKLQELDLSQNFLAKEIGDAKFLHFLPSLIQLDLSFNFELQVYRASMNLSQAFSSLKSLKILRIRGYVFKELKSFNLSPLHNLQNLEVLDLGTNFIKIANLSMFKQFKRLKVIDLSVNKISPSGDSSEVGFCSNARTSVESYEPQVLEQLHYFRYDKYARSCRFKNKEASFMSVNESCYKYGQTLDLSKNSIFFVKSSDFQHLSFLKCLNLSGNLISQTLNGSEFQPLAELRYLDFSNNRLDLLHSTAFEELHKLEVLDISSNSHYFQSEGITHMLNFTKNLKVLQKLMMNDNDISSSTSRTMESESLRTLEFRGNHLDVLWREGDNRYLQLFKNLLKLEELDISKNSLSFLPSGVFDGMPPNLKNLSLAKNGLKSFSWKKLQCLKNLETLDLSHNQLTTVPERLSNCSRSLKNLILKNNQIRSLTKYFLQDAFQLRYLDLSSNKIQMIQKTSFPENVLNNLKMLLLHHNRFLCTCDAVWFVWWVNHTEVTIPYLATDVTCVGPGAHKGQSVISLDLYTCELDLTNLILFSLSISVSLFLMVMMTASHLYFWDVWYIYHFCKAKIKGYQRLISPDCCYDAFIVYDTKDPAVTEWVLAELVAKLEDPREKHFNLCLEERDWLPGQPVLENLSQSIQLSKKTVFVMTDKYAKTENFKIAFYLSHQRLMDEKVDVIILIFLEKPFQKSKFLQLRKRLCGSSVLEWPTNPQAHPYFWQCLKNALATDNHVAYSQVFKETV
- Assay Info: TLR7 inhibition reporter assay (HEK-Blue cells, SEAP reporter, gardiquimod stimulation)
- Assay type: cell-based
- Experimental Parameters: HEK-Blue cells overexpressing human TLR7, SEAP reporter, gardiquimod 7.5 μM
Property Label: IC50 (nM)
Kindly provide the numeric value in nM only, without the unit symbol.

Take a look at these entries with their results.
Cc1cc(-c2[nH]c3ccc(C4CCN(C(=O)CN(C)C)C4)cc3c2C(C)C)cc(C)n1 (stereo not drawn) [Example 591] = 8
COc1cc(-c2[nH]c3ccc(CC4CN(C(C)C)C4)cc3c2C(C)C)cn2ncnc12 [Example 433] = 2
COc1cc(-c2[nH]c3ccc(C4CCC(NC(=O)CNC5COC5)CC4)cc3c2C(C)C)cn2ncnc12 (stereo not drawn) [Example 137] = 2

In: Form field - read-out: IC50; system: human TLR7 (Homo sapiens, UniProt Q9NYK1); submitted item: Cc1c(-c2[nH]c3ccc(C4CC(NC5COC5)C4)cc3c2C(C)C)cn(C)c(=O)c1C (stereo not drawn) [Example 496]
Out: 57

In: # iterate: COc1cc(-c2[nH]c3ccc(C4CCC(NCC(N)=O)CC4)cc3c2C(C)C)cn2ncnc12 (stereo not drawn) [Example 107]
Out: 0.22

In: # iterate: COc1ccc(CNC2CCC(c3ccc4[nH]c(-c5cc(C)nc(C)c5)c(C(C)C)c4c3)CC2)cc1 (single isomer, unassigned) [Example 49]
Out: 7

In: # iterate: COCCN1CCCC(c2ccc3[nH]c(-c4cc(OC)c5ncnn5c4)c(C(C)C)c3c2)C1 (single isomer, unassigned) [Example 252]
Out: 2

In: # iterate: COc1cc(-c2[nH]c3ccc(C4CCC(NC(=O)CN5CC6(COC6)C5)CC4)cc3c2C(C)C)cn2ncnc12 (stereo not drawn) [Example 138]
Out: 0.41

In: # iterate: CNCC(=O)N1CCOC(c2ccc3[nH]c(-c4cc(OC)c5ncnn5c4)c(C(C)C)c3c2)C1 (stereo not drawn) [Example 342]
Out: 3

In: # iterate: Cc1c(-c2[nH]c3ccc(C4CC(NCCS(C)(=O)=O)C4)cc3c2C(C)C)cn2ncnc2c1C (stereo not drawn) [Example 572]
Out: 0.93

In: # iterate: COc1cc(-c2[nH]c3ccc(C4CCC(NC5(C)CC5)CC4)cc3c2C(C)C)cn2ncnc12 (stereo not drawn) [Example 43]
Out: 1

In: # iterate: Cc1cc(-c2[nH]c3ccc(C4CCC(C(=O)N5CCN(C)CC5)CC4)cc3c2C(C)C)cn2ncnc12 (single isomer, unassigned) [Example 156]
Out: 0.82

In: # iterate: CNC(=O)CN1CC(c2ccc3[nH]c(-c4cn5ncnc5c(C)c4C)c(C(C)C)c3c2)OCC1(C)C (stereo not drawn) [Example 388]
Out: 37

In: # iterate: Cc1cc(-c2[nH]c3ccc([C@H]4C[C@H]4C(=O)NC4CCC5CNCC54)cc3c2C(C)C)ccn1 (stereo partly drawn) [Example 453]
Out: 77

In: # iterate: Cc1cc(-c2[nH]c3ccc(C4CN(C(C)C)CCO4)cc3c2C(C)C)cc(C)n1 (stereo not drawn) [Example 303]
Out: 15
